Assay: Drug exposure in human assessed as ratio of drug level to total AUC at 0.25% of Isobutyl 1-[8-Methoxy-5-(1-oxo-3H-isobenzofuran-5-yl)-[1,2,4]-triazolo[1,5-a]pyridin-2-yl]cyclopropanecarboxylate dosed via topical administration in lipid cream
Assay type: ADME, organism-based
Conditions: in vivo, topical_or_ocular
Recorded measurements of Drug uptake, one per entry
Give your result in % as a bare value.

Please review the following examples before continuing.
[[record]]
moleculesmiles = "COc1ccc(-c2ccc3c(c2)COC3=O)n2nc(C3(C(=O)O)CC3)nc12"
recordedmeasurement = 15

[[record]]
moleculesmiles = "COc1ccc(-c2ccc(C(=O)O)c(CO)c2)n2nc(C3(C(=O)OCC(C)(C)O)CC3)nc12"
recordedmeasurement = 1

[[record]]
moleculesmiles = "COc1ccc(-c2ccc(C(=O)O)c(CO)c2)n2nc(C3(C(=O)OCC(C)C)CC3)nc12"
recordedmeasurement = 12

[[record]]
moleculesmiles = "COc1ccc(-c2ccc3c(c2)COC3=O)n2nc(C3(C(=O)OCC(C)C)CC3)nc12"
recordedmeasurement = 1


Now let's try a different one.
Bench note: what Drug uptake did "COc1ccc(-c2ccc(C(=O)O)c(CO)c2)n2nc(C3(C(=O)O)CC3)nc12" show?
71

====

Test: Clearance in human liver microsomes at 0.5 uM incubated for 40 mins in presence of NADPH by LC-MS/MS analysis
Format: ADME, Microsome
Conditions: read-out: CLH
Reported CLint scaled at 0.5 µM values for a set of compounds

Guide cases for CLint scaled at 0.5 µM, answers given:
[[record]]
moleculesmiles = "COc1ccc(-c2ccc3c(c2)COC3=O)n2nc(C3(C(=O)OCC(C)(C)O)CC3)nc12"
recordedmeasurement = "66 mL/min/kg"

[[record]]
moleculesmiles = "COc1ccc(-c2cccc(C#N)c2)n2nc(C3(CCO)CC3)nc12"
recordedmeasurement = "16 mL/min/kg"

[[record]]
moleculesmiles = "COc1ccc(-c2ccc3c(c2)COC3=O)n2nc(C3CC3)nc12"
recordedmeasurement = "64 mL/min/kg"

[[record]]
moleculesmiles = "COC(=O)C1(c2nc3c(OC)ccc(-c4ccc5c(c4)COC5=O)n3n2)CC1"
recordedmeasurement = "193 mL/min/kg"


Look up CLint scaled at 0.5 µM: "COC(=O)c1cccc(-c2ccc(OC)c3nc(C4CC4)nn23)c1"
> 200 mL/min/kg

Name the recorded CLint scaled at 0.5 µM for "COc1ccc(-c2ccc3c(c2)COC3=O)n2nc(C3(C(=O)O)CC3)nc12" .
< 16 mL/min/kg

Fill in: CLint scaled at 0.5 µM of "COc1ccc(-c2ccc3c(c2)COC3=O)n2nc(C3(C(=O)OCC(C)C)CC3)nc12" is ___
> 200 mL/min/kg

What does the record list as CLint scaled at 0.5 µM for "COc1ccc(-c2ccc3c(c2)COC3=O)n2nc(C3(C(=O)OC(C)(C)C)CC3)nc12" ?
> 200 mL/min/kg

// returns reported CLint scaled at 0.5 µM for input "COC(=O)c1cccc(-c2ccc(OC)c3nc(C4(C(=O)NCC(C)C)CC4)nn23)c1"
> 200 mL/min/kg

Which CLint scaled at 0.5 µM value belongs to "COC(=O)c1ccc(-c2ccc(OC)c3nc(C4CC4)nn23)cc1" ?
> 200 mL/min/kg

====

In this section, each of the compounds is paired with its reported half-life at 1 µM.
Assay: Half life in human keratinocytes at 1 uM by LC-MS/MS analysis
Type: ADME, cell-based, Keratinocyte

// solved cases for half-life at 1 µM follow
[[record]]
moleculesmiles = "COc1ccc(-c2ccc3c(c2)COC3=O)n2nc(C3(C(=O)OC4CCCC4)CC3)nc12"
recordedmeasurement = "12 h"

[[record]]
moleculesmiles = "COC(=O)c1ccc(-c2ccc(OC)c3nc(C4(C(=O)NCC(C)C)CC4)nn23)cc1"
recordedmeasurement = "9 h"

[[record]]
moleculesmiles = "COc1ccc(-c2ccc3c(c2)COC3=O)n2nc(C3(C(=O)OC4CCCCC4)CC3)nc12"
recordedmeasurement = "> 12 h"

[[record]]
moleculesmiles = "COc1ccc(-c2ccc(C(=O)O)c(CO)c2)n2nc(C3(C(=O)OCC(C)C)CC3)nc12"
recordedmeasurement = "> 12 h"

[[record]]
moleculesmiles = "COC(=O)c1cccc(-c2ccc(OC)c3nc(C4(C(=O)NCC(C)C)CC4)nn23)c1"
recordedmeasurement = "> 12 h"


State the recorded half-life at 1 µM for this entry: "COc1ccc(-c2ccc3c(c2)COC3=O)n2nc(C3(C(=O)O[C@@H]4CCOC4)CC3)nc12"
> 12 h

Any idea what its half-life at 1 µM is? The compound is "COc1ccc(-c2cccc3c2COC3=O)n2nc(C3CC3)nc12"
> 12 h

What value of measured half-life at 1 µM is listed for "COC(=O)c1ccc(-c2ccc(OC)c3nc(C4CC4)nn23)cc1" ?
> 12 h

So what does the record say about half-life at 1 µM for "COc1ccc(-c2ccc3c(c2)COC3=O)n2nc(C3(C(=O)OC[C@@H](C)CO)CC3)nc12" ?
> 12 h

====

Assay: Clearance in Gottingen mini pig at 0.5 to 2 mg/kg, iv measured up to 24 hrs by LC-MS/MS analysis
Type: ADME, organism-based, Sus scrofa domesticus
Conditions: in vivo, dose 0.5-2 mg/kg
readoutKind: clearance (mL/min/kg)
Kindly provide the numeric value in mL/min/kg only, without the unit symbol.

For the molecule "COc1ccc(-c2ccc3c(c2)COC3=O)n2nc(C3(C(=O)OCC(C)C)CC3)nc12" , what clearance is on record?
200

====

Assay: Half life in cynomolgus monkey whole blood at 0.1 uM by LC-MS/MS analysis
Format: ADME, tissue-based, Macaca fascicularis
readoutKind: half-life at 0.1 µM (min)
Lab book: enter the figure in min, no units written.

Which half-life at 0.1 µM is listed for "COc1ccc(-c2ccc3c(c2)COC3=O)n2nc(C3(C(=O)OCC(C)C)CC3)nc12" ?
5

====

// reported Drug uptake per item
Experiment: Drug exposure in skin of Gottingen mini pig at 0.1% dosed topically as monoglyceride cream measured after 24 hrs by LC-MS/MS analysis
Assay type: ADME, organism-based, Sus scrofa domesticus, Skin of body
Conditions: in vivo, topical_or_ocular
Answer in µM, number only, no unit symbol.

[[record]]
moleculesmiles = "CCCNC(=O)COc1c(C(=O)Cc2c(Cl)cncc2Cl)ccc(OC)c1OC"
readoutkind = "Drug uptake"
recordedmeasurement = 14

[[record]]
moleculesmiles = "COc1ccc(-c2ccc(C(=O)O)c(CO)c2)n2nc(C3(C(=O)O)CC3)nc12"
readoutkind = "Drug uptake"
recordedmeasurement = 3

[[record]]
moleculesmiles = "COc1ccc(-c2ccc(C(=O)O)c(CO)c2)n2nc(C3(C(=O)OCC(C)C)CC3)nc12"
readoutkind = "Drug uptake"
recordedmeasurement = 0.6


Now for another entry.
Recorded Drug uptake of "COc1ccc(-c2ccc3c(c2)COC3=O)n2nc(C3(C(=O)OCC(C)C)CC3)nc12" , please.
17

====

Assay: Cmax in cynomolgus monkey at 30 mg/kg, sc dosed as single administration
Type: ADME, organism-based, Macaca fascicularis
Set-up: route subcutaneous, dose 30 mg/kg
Details: in vivo, read-out: Cmax
readoutKind: Cmax (ng/mL)
Dear colleague, please return just the value in ng/mL, with no unit written.

These recorded examples may help you get a feel for the data.
[[record]]
moleculesmiles = "COc1ccc(-c2ccc(C(=O)O)c(CO)c2)n2nc(C3(C(=O)OCC(C)C)CC3)nc12"
readoutkind = "Cmax"
recordedmeasurement = 749

[[record]]
moleculesmiles = "COc1ccc(-c2ccc3c(c2)COC3=O)n2nc(C3(C(=O)O)CC3)nc12"
readoutkind = "Cmax"
recordedmeasurement = 71.7

[[record]]
moleculesmiles = "COc1ccc(-c2ccc3c(c2)COC3=O)n2nc(C3(C(=O)OCC(C)C)CC3)nc12"
readoutkind = "Cmax"
recordedmeasurement = 46

[[record]]
moleculesmiles = "COc1ccc(-c2ccc(C(=O)O)c(CO)c2)n2nc(C3(C(=O)OCC(C)(C)O)CC3)nc12"
readoutkind = "Cmax"
recordedmeasurement = 10.5


Here is another compound to look at.
Param item = "COc1ccc(-c2ccc(C(=O)O)c(CO)c2)n2nc(C3(C(=O)O)CC3)nc12" ; retrieve measured Cmax.
407

====

Test: Half life in mini pig whole blood at 0.1 uM by LC-MS/MS analysis
Assay type: ADME, tissue-based, Sus scrofa domesticus
readoutKind: half-life at 0.1 µM

Use these answered entries as a reference point.
[[record]]
moleculesmiles = "COc1ccc(-c2ccc(C(=O)O)c(CO)c2)n2nc(C3(C(=O)OCC(C)C)CC3)nc12"
recordedmeasurement = "> 1 h"

[[record]]
moleculesmiles = "COc1ccc(-c2ccc3c(c2)COC3=O)n2nc(C3(C(=O)O)CC3)nc12"
recordedmeasurement = "> 1 h"

[[record]]
moleculesmiles = "COc1ccc(-c2ccc3c(c2)COC3=O)n2nc(C3(C(=O)OCC(C)C)CC3)nc12"
recordedmeasurement = "0.167 h"


Could you tell me which half-life at 0.1 µM is on file for "COc1ccc(-c2ccc(C(=O)O)c(CO)c2)n2nc(C3(C(=O)O)CC3)nc12" ?
> 1 h
